test: soluble fraction after stress (log2 fold change); higher = more stays soluble; pooled small domains, quantitative proteomics; details: stress: 50 degC
assay.metric: soluble fraction (log2)

[[record]]
sequence_string = "HMKHVDLDNNERYIYGIIGSTKIHVDEVVEKSGMETKHVMAILTNLELKEAIKGIPGGFYLR"
assay_metric = "soluble fraction (log2)"
reading = -0.506


Give soluble fraction (log2) for each listed item.
1. HMRKPLDQSWVPDDDAMKILTNSGIEKEFIKNEIPEFILYWSDKGEISDSWNTKFISQIRRQWAKNQ
2. HMVNLLVTPLEELEINFRTLRALRKYNIYQLEDLLRFIKYNGFDALRIVPGMGIKSTEQLYEKLKDKNI
3. HMGMSQQKQSSTVRIIMQDISDANEGLMKMSQIIDAALAEGISETIVRNAISNLHRGGTIYESQTGTYQW

(A)
-0.222
-0.236
-0.359
